FYI, the data here is from PubChem BioAssay AID504374.

# subject-of-test: Runt-related transcription factor 1 (Homo sapiens) + Core-binding factor subunit beta (Homo sapiens) (UniProt Q01196+Q13951)
# Sequence (Q01196 whole entry, looked up): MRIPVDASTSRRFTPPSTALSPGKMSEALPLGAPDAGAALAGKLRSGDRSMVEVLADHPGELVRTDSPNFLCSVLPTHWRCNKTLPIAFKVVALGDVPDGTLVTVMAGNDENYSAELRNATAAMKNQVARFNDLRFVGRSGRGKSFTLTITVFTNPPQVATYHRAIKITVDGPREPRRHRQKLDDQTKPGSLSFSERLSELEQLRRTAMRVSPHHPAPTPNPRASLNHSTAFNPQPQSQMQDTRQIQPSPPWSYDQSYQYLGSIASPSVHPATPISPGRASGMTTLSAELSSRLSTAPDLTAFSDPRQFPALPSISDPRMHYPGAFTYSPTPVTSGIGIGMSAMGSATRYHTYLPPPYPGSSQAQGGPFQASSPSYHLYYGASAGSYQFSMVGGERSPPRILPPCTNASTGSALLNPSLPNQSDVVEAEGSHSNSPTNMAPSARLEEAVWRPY
# Sequence (Q13951 whole entry, looked up): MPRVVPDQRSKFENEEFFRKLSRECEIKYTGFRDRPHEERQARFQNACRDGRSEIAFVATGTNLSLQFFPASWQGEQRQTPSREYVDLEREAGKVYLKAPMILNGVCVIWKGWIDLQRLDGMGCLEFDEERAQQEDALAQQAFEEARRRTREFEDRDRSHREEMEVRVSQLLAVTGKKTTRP
# test-summary: qHTS Assay for Compounds Blocking the Interaction Between CBF-beta and RUNX1 for the Treatment of Acute Myeloid Leukemia: Hit Validation; note: nearly all actives have a fitted effect of over 60% in size
# applied-conditions: AlphaScreen CBFb-His/RUNX1-biotin binding; series mostly up to 59.8 µM
Hit rate of the full screen: of about 1,500 compounds, about 100 (6.7%) were called active. Not shown: some 7% with an inconclusive outcome. Calls come from the whole dose curve; as a rule, active = well fitted inhibition curve with a large enough effect; inconclusive = small, poorly fitted or top-dose-only effect, or effect the other way; inactive = flat fitted curve, though single readings scatter. The entries come from a sample that favours actives as a whole.
One label from this list, please: active, inactive

GET /call?item= `NNC(=O)c1ccc(COCC(F)(F)C(F)F)cc1` returns the recorded outcome of this test.
inactive

// param item: `CCNC(=O)NC(=O)c1csc([N+](=O)[O-])c1` ; yields the recorded call
inactive

Returns: the outcome recorded for `COc1cc(/C=N/NC(=O)c2cncc(Br)c2)cc([N+](=O)[O-])c1O` in this assay.
active

Hi team, can someone confirm the assay call for COc1ccccc1NC(=S)NCC1CCC(CNC(=S)Nc2ccccc2OC)CC1 (stereo unspecified) ?
inactive

// outcome(item) with item = `COc1cc(/C=N/Nc2ccc(S(N)(=O)=O)cc2[N+](=O)[O-])cc(OC)c1O`
inactive

Which outcome was assigned to Cc1c(Cl)cccc1NC(=S)N(CCN(C)C)C(C)c1ccccn1 (stereo unspecified) in this test?
active

I'd appreciate the recorded outcome for `COc1ccc(/C=N/NC(=O)c2ccc3nc[nH]c3c2)cc1OC` from this test.
inactive

Short answer needed: outcome of this test for `NC(=O)C1CCN(c2c([N+](=O)[O-])cc(C(F)(F)F)cc2[N+](=O)[O-])CC1` ?
inactive

// return assay outcome for `Nc1nc(Nc2ccccc2)nc(NCCO)c1[N+](=O)[O-]`
inactive

Lab log entry: `CCCc1nc2sc3ccccc3c(=O)c2c(=O)n1Cc1ccc(OC)cc1` — outcome as called in the assay?
inactive

Hey, what did the test say about Cc1ccc(C)c(NC(=S)N(CCN(C)C)C(C)c2ccccn2)c1 (stereo unspecified) ?
active

====

# subject-of-test: Runt-related transcription factor 1 (Homo sapiens) + Core-binding factor subunit beta (Homo sapiens) (UniProt Q01196+Q13951)
# test-summary: qHTS Assay for Compounds Blocking the Interaction Between CBF-beta and RUNX1 for the Treatment of Acute Myeloid Leukemia: Hit Validation; note: nearly all actives have a fitted effect of over 60% in size
# applied-conditions: AlphaScreen CBFb-His/RUNX1-biotin binding; series mostly up to 59.8 µM
Screen size: about 1,500 compounds; about 100 (6.7%) were called active. Roughly 7% stayed inconclusive and do not appear here. Calls follow the shape of the dose curve; as a rule, active = well fitted inhibition curve with a large enough effect; inconclusive = small, poorly fitted or top-dose-only effect, or effect the other way; inactive = flat fitted curve, though single readings scatter. Many of the other results were omitted from the sample, so actives are more common in it than they were.
Form entry, call: pick from 1 (active), 0 (inactive)

For this compound, state the assay outcome: `O=C(CSc1ccc(-c2ccccn2)nn1)NCc1ccccc1`
1

Entry `Cc1ccc(NC(=S)Nc2ccccn2)cc1C` : call = ?
0

Look up the recorded call for Cc1onc(-c2c(Cl)cccc2Cl)c1NC(=O)NC1CCSC1 (stereo not given) in this test.
0

What classification did `CC(=O)c1cnn(-c2ccc(Cl)c(Cl)c2Cl)c1C` end up with in this test?
0

Identify the outcome logged in this assay for the compound shown: CCOC(=O)C1CCCN(C(=O)Nc2c(-c3ccccc3)noc2C)C1 (stereo not given)
0

# fetch the recorded call for `O=C(CCCCCCCCCCC(=O)NCc1cccnc1)NCc1cccnc1` here
0

I'd appreciate the recorded outcome for `CCOC(=O)CN1NC2(CCCCCC2)NC1=S` from this test.
0

Kindly provide the recorded test outcome for the following compound: `CCOc1ccc(NC(=O)Nc2cc(C(C)C)c(O)cc2C)cc1`
0

Entry `COc1cc(O)c2c(c1)oc(=O)c1c3cc(O)c(O)cc3oc21` : call = ?
1

# outcome recorded in this test, key = `COc1ccc(NC(=O)CCC(=O)N/N=C/c2ccncc2)cc1`
0

Hi, do you know how CC1CC(C)(C)OC(C[N+]2(C)CCCCC2)O1 (stereo not given) came out in this test?
0

Dear all, I need the recorded test outcome for `C/C(=N\O)c1c(O)cc(-c2ccccc2)n(-c2ccccc2)c1=O` , thank you.
0

Record request — test call for `CCOC(=O)Cc1csc(NC(=O)Cc2ccc(Br)cc2)n1`
0

So what was the verdict on `COc1ccc(/C=N/NC(=O)Cn2ccnc2C)cc1OC` in this test?
0

# fetch the recorded call for `CCOc1ccc(Nc2c3ccccc3nc3ccccc23)cc1` here
0

Per the records of this test, what outcome belongs to `c1ccc2sc(SCSc3nc4ccccc4s3)nc2c1` ?
0

What classification did `NNC(=O)c1ccc(COc2ccc([N+](=O)[O-])cc2)o1` end up with in this test?
0

Call for entry COCCCN1CCN(C2Cc3ccccc3Sc3ccc(Cl)cc32)CC1 (stereo not given) :
1

Query: recorded result category for CCOP(=O)(c1ccc(N(C)C)cc1)C(O)c1cccnc1 (stereo not given) in this test
0

Record lookup: outcome of this test for `CCCCNC(=O)NCCN1CCOCC1` ?
0

What outcome does the record of this test show for `COC(=O)[C@H](C)NC(=O)NCc1ccccc1` ?
0

Per the records of this test, what outcome belongs to CC1CN(S(=O)(=O)c2cccc(C(F)(F)F)c2)CC(C)O1 (stereo not given) ?
0

Which outcome did this test record for the compound `CCOC(=O)c1c(C)n(C)c2ccc(OC)c(NC(=O)CCN3CCC(Cc4ccccc4)CC3)c12` ?
0

Fill in: this test's call for `O=C(c1ccccc1)c1ccc2c(c1)OCCCO2` is ___
0

Assay outcome for `c1ccc(-c2nnc(N3CCN(c4ccccc4)CC3)nc2-c2ccccc2)cc1` : what was it?
0

====

# subject-of-test: Runt-related transcription factor 1 (Homo sapiens) + Core-binding factor subunit beta (Homo sapiens) (UniProt Q01196+Q13951)
# test-summary: qHTS Assay for Compounds Blocking the Interaction Between CBF-beta and RUNX1 for the Treatment of Acute Myeloid Leukemia: Hit Validation; note: nearly all actives have a fitted effect of over 60% in size
# applied-conditions: AlphaScreen CBFb-His/RUNX1-biotin binding; series mostly up to 59.8 µM
The campaign covered roughly 1,500 compounds. About 100 (6.7%) were called active. Another 7% or so got no clear call; they are omitted. Calls come from the whole dose curve; as a rule, active = well fitted inhibition curve with a large enough effect; inconclusive = small, poorly fitted or top-dose-only effect, or effect the other way; inactive = flat fitted curve, though single readings scatter. Only a selection was taken, and actives are over-represented in it overall.
The reply should be one of these categories: label 1 for active, label 0 for inactive

Outcome? `c1cnc2c(c1)ccc1cccnc12`
label 1

I would be grateful if you could indicate the recorded call for `Cc1ccc(/C=N/n2c(-c3ccncc3)n[nH]c2=S)s1` .
label 0

Which outcome was assigned to `S=c1[nH]c2cc3ccccc3cc2[nH]1` in this test?
label 0

Status in this test for CC1=CC(=O)CC(C)(C)C1(O)/C=C/C(C)=C/C(=O)O (stereo not drawn) ?
label 0

Test call for this compound, please: `CC(C)(C)S(=O)(=O)/C(C#N)=C/Nc1ccccn1`
label 0

Per the records of this test, what outcome belongs to `FC(F)(F)c1cccc(-n2c(Cn3nnc4ccccc43)n[nH]c2=S)c1` ?
label 0

Hey, what did the test say about `COC(=O)c1cc(NS(=O)(=O)c2ccc(F)cc2)ccc1N1CCOCC1` ?
label 0

Look up the recorded call for `CC(=O)Oc1cc(-c2coc3cc(OC(C)=O)c(OC(C)=O)c(OC(C)=O)c3c2=O)cc(OC(C)=O)c1OC(C)=O` in this test.
label 1

How did this test come out for `CCCOc1ccc(-c2nc(-c3ccc([N+](=O)[O-])cc3)cs2)cc1` ?
label 0

Tell me the assay call for `Cc1cccc(-c2n[nH]c(=S)n2/N=C/c2cccs2)c1` please.
label 0

Assay result, entry `CN=c1scc(-c2ccccc2F)n1/N=C/c1ccc(O)c(O)c1O` — outcome?
label 1

Tell me the assay call for `Cn1c(-c2ccc3ccccc3n2)[n+](C)c2ccccc21` please.
label 0

Please state the recorded outcome for this compound: `O=C(OCC(O)COC(=O)c1cccnc1)c1cccnc1`
label 0

Could you check what this test reported for `NC(=S)N/N=C/c1ncc(C(F)(F)F)cc1Cl` ?
label 1

# lookup: test call for `CCc1c(-c2ccccc2)[n+](=O)c2c(n1[O-])CCC2`
label 0

// outcome(item) with item = `Cc1nnn(C23C[C@@H]4C[C@@H](CC(C(=O)N5CCN(c6ccccc6)CC5)(C4)C2)C3)n1`
label 0

Entry `COc1ccc(/C(C)=N/NC(=O)CNC(=O)Cc2ccccc2)c(OC)c1` : call = ?
label 0

// outcome(item) with item = `Nc1ccc2nc3c(=O)[nH]c(=S)[nH]c3nc2c1`
label 1

Given `COc1ccc(/C=N/NC(=S)Nc2cc(C(F)(F)F)ccc2Cl)cc1` , state the outcome it received in this test.
label 0

Please let me know the test result on file for `COC(=O)/C=C(\C)N=Nc1c(O)[nH]c2ccccc12` .
label 0

Per the records of this test, what outcome belongs to CCc1cccc(NC(=O)CCCCCC2NC(=O)NC2C)c1 (stereo not drawn) ?
label 1

Would you mind telling me which call this test gave `Cc1cc(OCC(=O)c2cccc(C(F)(F)F)c2)n2cnnc2n1` ?
label 0

State the result this test recorded for `CN(C)C(=O)Nc1ccccc1` .
label 0
